conditions: in n-butanol, 313.15 K

# entrySmiles, solubility (mole fraction)
data = [
    ("CC(=O)N1CCN(c2ccc(O)cc2)CC1", 0.00488),
]

* * *

settings: in isobutanol, 293.15 K
experimentalReadout: solubility (mole fraction)

# entrySmiles, experimentalReadout, valueMeasured
measured = [
    ("CC(=O)N1CCN(c2ccc(O)cc2)CC1", "solubility (mole fraction)", 0.00172),
]

* * *

details: in n-propanol, 313.15 K

# entrySmiles, solubility (mole fraction)
data = [
    ("CC(=O)N1CCN(c2ccc(O)cc2)CC1", 0.00561),
]

* * *

conditions: in 2-propoxyethanol, 318.15 K

# entrySmiles, solubility (mole fraction)
records = [
    ("CC(=O)N1CCN(c2ccc(O)cc2)CC1", 0.0128),
]

* * *

details: in acetonitrile, 318.15 K
experimentalReadout: solubility (mole fraction)

# entrySmiles, valueMeasured
measured = [
    ("CC(=O)N1CCN(c2ccc(O)cc2)CC1", 0.00359),
]

* * *

conditions: in n-butanol, 293.15 K

# entrySmiles, solubility (mole fraction)
records = [
    ("CC(=O)N1CCN(c2ccc(O)cc2)CC1", 0.00186),
]

* * *

settings: in 2-butoxyethanol, 283.15 K

# entrySmiles, solubility (mole fraction)
data = [
    ("CC(=O)N1CCN(c2ccc(O)cc2)CC1", 0.00309),
]

* * *

settings: in isopropanol, 323.15 K

# entrySmiles, solubility (mole fraction)
records = [
    ("CC(=O)N1CCN(c2ccc(O)cc2)CC1", 0.00796),
]

* * *

details: in ethanol, 323.15 K

# entrySmiles, solubility (mole fraction)
measured = [
    ("CC(=O)N1CCN(c2ccc(O)cc2)CC1", 0.00887),
]

* * *

conditions: in ethanol, 308.15 K

# entrySmiles, solubility (mole fraction)
records = [
    ("CC(=O)N1CCN(c2ccc(O)cc2)CC1", 0.00551),
]

* * *

details: in 2-ethoxyethanol, 323.15 K

# entrySmiles, solubility (mole fraction)
data = [
    ("CC(=O)N1CCN(c2ccc(O)cc2)CC1", 0.0179),
]

* * *

settings: in n-butanol, 303.15 K

# entrySmiles, solubility (mole fraction)
rows = [
    ("CC(=O)N1CCN(c2ccc(O)cc2)CC1", 0.00298),
]

* * *

conditions: in 2-methoxyethanol, 303.15 K

# entrySmiles, solubility (mole fraction)
rows = [
    ("CC(=O)N1CCN(c2ccc(O)cc2)CC1", 0.0133),
]

* * *

conditions: in 2-ethoxyethanol, 318.15 K
experimentalReadout: solubility (mole fraction)

# entrySmiles, valueMeasured
rows = [
    ("CC(=O)N1CCN(c2ccc(O)cc2)CC1", 0.0156),
]

* * *

conditions: in n-butanol, 323.15 K
experimentalReadout: solubility (mole fraction)

# entrySmiles, experimentalReadout, valueMeasured
rows = [
    ("CC(=O)N1CCN(c2ccc(O)cc2)CC1", "solubility (mole fraction)", 0.00765),
]

* * *

conditions: in 2-methoxyethanol, 293.15 K

# entrySmiles, solubility (mole fraction)
measured = [
    ("CC(=O)N1CCN(c2ccc(O)cc2)CC1", 0.00968),
]

* * *

conditions: in ethylene glycol, 323.15 K

# entrySmiles, solubility (mole fraction)
rows = [
    ("CC(=O)N1CCN(c2ccc(O)cc2)CC1", 0.00538),
]
